target system: Amyloid-beta precursor protein (Homo sapiens)
protocol description: Inhibition of amyloid beta (1 to 42) (unknown origin) fibril formation assessed as decrease in fluorescence plateau at compound/protein ratio of 10/1 after 42 hrs by ThT fluorescence assay relative to control
test conditions: concentration not given here
assay readout: inhibition (%)

Data point: COc1ccc(NC(C)=O)cc1C(=O)NNC(=O)[C@H](CCCCN)NC(=O)CCOC[C@H]1OC(OCCCNC(=O)[C@@H](NC(=O)[C@H](C)NC(=O)OC(C)(C)C)C(C)C)[C@H](O)[C@@H](O)[C@@H]1O (stereo partly drawn) ; inhibition = 84

A = COc1ccc(NC(C)=O)cc1C(=O)NNC(=O)[C@@H](NC(=O)CCOC[C@H]1OC(OCCCNC(=O)[C@@H](NC(=O)[C@H](C)NC(=O)OC(C)(C)C)C(C)C)[C@H](O)[C@@H](O)[C@@H]1O)C(C)C (stereo partly drawn)
B = COc1ccc(NC(C)=O)cc1C(=O)NNC(=O)[C@H](CCCCN)NC(=O)CCOC[C@H]1O[C@@H](OCCCNC(=O)[C@@H](NC(=O)[C@H](C)N)C(C)C)[C@H](O)[C@@H](O)[C@@H]1O
[ask] Select one: A or B . Criterion: greater recorded inhibition. Respond using the label that marks the chosen record.
[reply] B

----------
target system: Amyloid-beta precursor protein (Homo sapiens)
protocol description: Inhibition of amyloid beta (1 to 42) (unknown origin) fibril formation assessed as decrease in fluorescence plateau at compound/protein ratio of 10/1 after 42 hrs by ThT fluorescence assay relative to control
test conditions: concentration not given here
*1 amine or outer side, *2 acyl side, *3 side chain or, on linkers, in order; H or OH if unused. Where a SMILES comes first, the peptide text is derived from it. [ ]: non-standard residue; d: D form. X1 = O=C(CCOC[C@H]1O[C@@H](OCCCN[*:1])[C@H](O)[C@@H](O)[C@@H]1O)[*:2]
assay readout: inhibition (%)

The value of inhibition recorded for COc1ccc(NC(C)=O)cc1C(=O)NNC(=O)[C@H](CCCCN)NC(=O)CCOC[C@H]1OC(OCCCNC(=O)[C@@H](NC(=O)[C@H](C)N)C(C)C)[C@H](O)[C@@H](O)[C@@H]1O (mixture of isomers) when tested on Amyloid-beta precursor protein (Homo sapiens) reads 87

P = COC(=O)[C@H](CC(C)C)NC(=O)[C@@H](NC(=O)CCOC[C@H]1O[C@@H](OCCCNC(=O)[C@@H](NC(=O)[C@H](C)N)C(C)C)[C@H](O)[C@@H](O)[C@@H]1O)C(C)C (H-AV[X1]VL-OMe)
Q = COc1ccc(NC(C)=O)cc1C(=O)NNC(=O)[C@@H](NC(=O)CCOC[C@H]1OC(OCCCNC(=O)[C@@H](NC(=O)[C@H](C)N)C(C)C)[C@H](O)[C@@H](O)[C@@H]1O)C(C)C (mixture of isomers)
[ask] # argmax over inhibition for candidates P and Q Pick one and reply with its label.
[reply] P
(P: 56%, Q: 31%)

----------
target system: Amyloid-beta precursor protein (Homo sapiens) (UniProt P05067)
Sequence (P05067 whole entry): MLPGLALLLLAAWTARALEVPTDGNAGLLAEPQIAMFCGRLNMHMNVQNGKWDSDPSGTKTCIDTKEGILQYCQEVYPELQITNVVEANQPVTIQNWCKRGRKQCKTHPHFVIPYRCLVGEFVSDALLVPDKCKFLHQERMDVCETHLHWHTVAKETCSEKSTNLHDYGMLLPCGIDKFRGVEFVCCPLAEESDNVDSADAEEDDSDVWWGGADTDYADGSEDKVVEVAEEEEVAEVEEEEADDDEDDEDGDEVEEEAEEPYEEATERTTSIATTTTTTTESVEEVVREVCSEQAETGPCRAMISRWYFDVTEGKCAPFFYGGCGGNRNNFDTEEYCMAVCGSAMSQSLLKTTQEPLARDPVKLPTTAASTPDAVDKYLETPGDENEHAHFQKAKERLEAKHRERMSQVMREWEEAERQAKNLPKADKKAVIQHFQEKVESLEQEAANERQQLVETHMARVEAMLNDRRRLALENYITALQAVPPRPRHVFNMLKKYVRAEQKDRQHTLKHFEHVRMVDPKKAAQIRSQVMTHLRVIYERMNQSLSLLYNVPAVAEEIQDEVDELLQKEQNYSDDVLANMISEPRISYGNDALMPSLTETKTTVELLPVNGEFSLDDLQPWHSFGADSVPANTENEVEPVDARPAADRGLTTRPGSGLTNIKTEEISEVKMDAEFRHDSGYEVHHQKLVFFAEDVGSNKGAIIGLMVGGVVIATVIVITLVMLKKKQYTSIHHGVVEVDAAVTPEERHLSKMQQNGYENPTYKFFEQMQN
protocol description: Inhibition of amyloid beta (1 to 42) (unknown origin) fibril formation assessed as extension of aggregation half life at compound/protein ratio of 1/1 after 42 hrs by ThT fluorescence assay relative to control
Set-up: scale not given: the % may be the effect or the level left
assay readout: Activity (%)

Field Activity (entry COc1ccc(NC(C)=O)cc1C(=O)NNC(=O)[C@@H](NC(=O)CCOC[C@H]1OC(OCCCNC(=O)[C@@H](NC(=O)[C@H](C)NC(=O)OC(C)(C)C)C(C)C)[C@H](O)[C@@H](O)[C@@H]1O)C(C)C (stereo not given in full) ) reads 138

What the record says about COc1ccc(NC(C)=O)cc1C(=O)NNC(=O)[C@H](CCCCN)NC(=O)CCOC[C@H]1O[C@@H](OCCCNC(=O)[C@@H](NC(=O)[C@H](C)N)C(C)C)[C@H](O)[C@@H](O)[C@@H]1O : Activity is 165

get_value(item= COc1ccc(NC(C)=O)cc1C(=O)NNC(=O)[C@H](CCCCN)NC(=O)CCOC[C@H]1OC(OCCCNC(=O)[C@@H](NC(=O)[C@H](C)NC(=O)OC(C)(C)C)C(C)C)[C@H](O)[C@@H](O)[C@@H]1O (stereo not given in full) , readout=Activity) returns 154

Record COc1ccc(NC(C)=O)cc1C(=O)NNC(=O)[C@@H](NC(=O)CCOC[C@H]1OC(OCCCNC(=O)[C@@H](NC(=O)[C@H](C)N)C(C)C)[C@H](O)[C@@H](O)[C@@H]1O)C(C)C (mixture of isomers) , field Activity: 155

Lab note: measured Activity of COc1ccc(NC(C)=O)cc1C(=O)NNC(=O)[C@H](CCCCN)NC(=O)CCOC[C@H]1OC(OCCCNC(=O)[C@@H](NC(=O)[C@H](C)N)C(C)C)[C@H](O)[C@@H](O)[C@@H]1O (mixture of isomers) was 148
